target: Beta-galactosidase (Escherichia coli) (UniProt Q8VNN2); assay: potency against CXCR6 with APJ panel – cell-based, beta-arrestin, DiscoveRx, uHTS hits, dose response (AID 624129); conditions: CXCR6 beta-arrestin (DiscoveRx) antagonist cell assay, b-galactosidase, dose range 1
Sequence (Q8VNN2 whole entry, looked up): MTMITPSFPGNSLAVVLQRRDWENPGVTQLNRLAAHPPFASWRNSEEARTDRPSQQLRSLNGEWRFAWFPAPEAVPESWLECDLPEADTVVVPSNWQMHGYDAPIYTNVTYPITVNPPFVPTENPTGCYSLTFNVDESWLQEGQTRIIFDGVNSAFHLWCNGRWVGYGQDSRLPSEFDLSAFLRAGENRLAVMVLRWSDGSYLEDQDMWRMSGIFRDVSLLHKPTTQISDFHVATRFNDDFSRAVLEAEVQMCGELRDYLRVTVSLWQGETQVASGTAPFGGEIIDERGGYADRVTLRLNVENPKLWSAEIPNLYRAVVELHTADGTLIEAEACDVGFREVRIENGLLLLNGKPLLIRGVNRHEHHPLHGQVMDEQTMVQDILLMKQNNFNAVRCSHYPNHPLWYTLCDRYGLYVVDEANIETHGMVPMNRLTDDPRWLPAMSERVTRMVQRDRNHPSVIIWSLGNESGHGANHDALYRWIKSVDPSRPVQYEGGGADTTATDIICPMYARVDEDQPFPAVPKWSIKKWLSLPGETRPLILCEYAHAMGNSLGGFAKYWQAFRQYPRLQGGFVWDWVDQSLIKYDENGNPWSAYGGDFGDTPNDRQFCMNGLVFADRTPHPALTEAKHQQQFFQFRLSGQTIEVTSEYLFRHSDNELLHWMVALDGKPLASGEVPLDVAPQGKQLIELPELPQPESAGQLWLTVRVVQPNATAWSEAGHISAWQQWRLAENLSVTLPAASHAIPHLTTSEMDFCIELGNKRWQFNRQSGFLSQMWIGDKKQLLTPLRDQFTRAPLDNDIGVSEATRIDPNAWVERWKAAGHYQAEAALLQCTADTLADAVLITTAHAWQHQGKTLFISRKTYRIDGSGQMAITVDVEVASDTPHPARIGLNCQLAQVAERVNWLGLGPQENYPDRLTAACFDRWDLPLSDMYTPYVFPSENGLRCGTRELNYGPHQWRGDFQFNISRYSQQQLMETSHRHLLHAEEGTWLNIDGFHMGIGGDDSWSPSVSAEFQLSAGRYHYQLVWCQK
Calls of active or inactive are those of the source. How the calls were made is not given here.
Allowed answers: 1 for active, 0 for inactive

Qu. Name the outcome recorded for `NC(=S)N/N=C/c1ncc(C(F)(F)F)cc1Cl` in the assay.
Ans. 0

Qu. Recorded test outcome, item `CC(=NNc1nc2ccccc2s1)c1ncccn1`
Ans. 0

Qu. Call for entry CN(C(=O)CSC1=Nc2ccccc2C2=NC(c3ccccc3)C(=O)N12)C1CCCCC1 (stereo not drawn) :
Ans. 0

Qu. How was CC(Oc1ccc(Br)cc1)C(=O)Nc1nc(-c2ccccn2)cs1 (stereo not drawn) classified in this test?
Ans. 0

Qu. Called result for `O=C1C=CC(=O)N1Cc1ccccc1`
Ans. 0

###

target: C-X-C chemokine receptor type 6 (Homo sapiens); experiment: potency against CXCR6 with APJ panel – cell-based, beta-arrestin, DiscoveRx, uHTS hits, dose response (AID 624129); details: CXCR6 beta-arrestin (DiscoveRx) antagonist cell assay, CXCR6, dose range 1
Active and inactive are the calls of the source. The rule behind the calls is not given here.
Answer with one of the outcomes 1.0 for active, 0.0 for inactive

Here are 4 compounds together with their reported answers.
Qu. What did the test return for `Nc1ccccc1C#CC(=O)c1ccccc1` ?
Ans. 0.0

Qu. Returns: the outcome recorded for `CCCSc1cc(NCCOC(=O)CCC)c([N+](=O)[O-])c2nonc12` in this assay.
Ans. 0.0

Qu. How did this test come out for `COc1ccc(C(=O)NC(=S)Nc2ccc([N+](=O)[O-])cc2C)cc1OC` ?
Ans. 0.0

Qu. State the result this test recorded for `O=C1c2cccc3c([N+](=O)[O-])ccc(c23)C(=O)N1c1ccc(Cl)cn1` .
Ans. 0.0

Others:
Qu. Please let me know the test result on file for `Cc1cc2nc(N3C(=O)CNC3=S)sc2cc1C` .
Ans. 0.0

Qu. I'd appreciate the recorded outcome for `N#CC(C#N)=C1C=CC=CN1/C(=C\c1ccco1)C(=O)c1ccc(-c2ccccc2)cc1` from this test.
Ans. 0.0

Qu. What did this assay record as the result for `COc1cccc(C(=O)NC(=S)N2CCN(c3ccc(C(F)(F)F)cc3[N+](=O)[O-])CC2)c1` ?
Ans. 0.0

Qu. Would you mind telling me which call this test gave `COC(=O)c1ccc(CCc2cc(O)c(Br)cc2O)cc1` ?
Ans. 0.0

###

biological target: C-X-C chemokine receptor type 6 (Homo sapiens) (UniProt O00574); experiment: potency against CXCR6 with APJ panel – cell-based, beta-arrestin, DiscoveRx, uHTS hits, dose response (AID 624129); conditions: CXCR6 beta-arrestin (DiscoveRx) antagonist cell assay, CXCR6, dose range 1, mean IC50 across replicates
Sequence (O00574 whole entry, looked up): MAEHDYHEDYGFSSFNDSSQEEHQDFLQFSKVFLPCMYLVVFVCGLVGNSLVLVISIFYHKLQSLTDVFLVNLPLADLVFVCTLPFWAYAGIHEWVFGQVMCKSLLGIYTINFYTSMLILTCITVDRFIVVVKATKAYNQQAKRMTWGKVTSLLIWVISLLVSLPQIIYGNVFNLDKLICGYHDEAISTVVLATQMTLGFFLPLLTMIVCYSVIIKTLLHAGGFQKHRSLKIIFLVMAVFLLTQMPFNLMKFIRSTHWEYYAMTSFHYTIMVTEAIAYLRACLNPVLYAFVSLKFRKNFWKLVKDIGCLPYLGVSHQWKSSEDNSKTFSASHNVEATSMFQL
measurement name: IC50 (µM)
Express it in µM; write the number only.

These solved cases illustrate the format of a correct answer.
Qu. Note IC50 for the compound shown: `CCOc1cc(/C=C2\C(=O)N(c3cccc(C(F)(F)F)c3)C(=O)c3ccccc32)ccc1O`
Ans. 49.2

Qu. Complete the entry with IC50 for `O=[N+]([O-])c1ccc(Sc2nc3ccccc3o2)c([N+](=O)[O-])c1`
Ans. 45.1

Qu. Tell us which IC50 value is on record for `CCC(=O)OCCNc1cc(SCCC(=O)OC)c2nonc2c1[N+](=O)[O-]`
Ans. 22.5

Qu. Return value of IC50 for input `O=C(NC(=S)N1CCN(c2ccc(C(F)(F)F)cc2[N+](=O)[O-])CC1)c1cccs1` , no commentary.
Ans. 12.9

Qu. Return IC50 (reported value) for this compound: `O=C1c2cccc3c([N+](=O)[O-])ccc(c23)C(=O)N1Cc1cccnc1`
Ans. 27.8

Proceed to the following item.
Qu. Provide one value: measured IC50 of `Cn1c(=O)[nH]c(=O)c2c1nc(Sc1nc3ccccc3s1)n2Cc1ccccc1`
Ans. 21.9
